This listing pairs compounds with measured melting point.

For orientation, consider the following solved cases.
COCCNc1nc(C)cc(-c2cccc(C3=Nc4cc(N(C)C)c(C(F)(F)F)cc4NC(=O)C3)c2)n1 ... 200 to 203 °C
CCCOc1cc2c(cc1C(F)(F)F)NC(=O)CC(c1cccc(-c3ccc(C4CC4)nc3)c1)=N2 ... 209 to 210 °C
O=C1CC(c2cccc(-c3cccnc3)c2)=Nc2cc(F)c(F)cc2N1 ... 246 °C
Cc1ccc(-c2cccc(C3=Nc4cc(N(C)C)c(C(F)(F)F)cc4NC(=O)C3)c2)cn1 ... 233 to 237 °C
CCOc1cc2c(cc1C(F)(F)F)NC(=O)CC(c1cccc(-c3cnc(C)cc3C)c1)=N2 ... 226 to 228 °C

Suppose we examine the compound `Cc1ncccc1-c1cccc(C2=Nc3ccc(-c4ccccc4F)cc3NC(=O)C2)c1` ; what melting point value has been reported?
192 to 194 °C

May I ask what melting point has been recorded for `CNc1cc(-c2cccc(C3=Nc4cc(C)c(C(F)(F)F)cc4NC(=O)C3)c2)ncn1` ?
232 to 233 °C
